test system: 755483-174-R-J1-PDC complex spheroid growth, percent test/control; assay: Anticancer human tumor 755483-174-R-J1-PDC patient-derived rhabdomyosarcoma cell line growth inhibition [Asc]; conditions: second compound 0.3 µM; first compound 0.00316 µM; active compounds read low;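 also: spheroids exposed to compounds for seven days before readout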

molecule: CNC(C)C(=O)NC1CN(S(=O)(=O)c2cccc(S(=O)(=O)N3CCC4CCC(C(=O)NC(c5ccccc5)c5ccccc5)N4C(=O)C(NC(=O)C(C)NC)C3)c2)CCC2CCC(C(=O)NC(c3ccccc3)c3ccccc3)N2C1=O (stereo not drawn) + CCN1C(C(=O)NC23CCC(C(=O)O)(CC2)CC3)C(c2cccc(Cl)c2F)C2(C(=O)Nc3cc(Cl)ccc32)C12CCCCC2
experimental system: 755483-174-R-J1-PDC complex spheroid growth, percent test/control;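 also: spheroids exposed to compounds for seven days before readout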
measurement units: %
viability, T/C: 76.7
--
molecule: NC1CCC(NC2CC2c2ccccc2)CC1 (stereo not drawn) + CCN1C(C(=O)NC23CCC(C(=O)O)(CC2)CC3)C(c2cccc(Cl)c2F)C2(C(=O)Nc3cc(Cl)ccc32)C12CCCCC2
experimental system: 755483-174-R-J1-PDC complex spheroid growth, percent test/control;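 also: spheroids exposed to compounds for seven days before readout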
measurement units: %
viability, T/C: 112
--
molecule: O=C(c1ccc(F)c(F)c1Nc1ccc(I)cc1F)N1CC(O)([C@@H]2CCCCN2)C1 + CCN1C(C(=O)NC23CCC(C(=O)O)(CC2)CC3)C(c2cccc(Cl)c2F)C2(C(=O)Nc3cc(Cl)ccc32)C12CCCCC2
experimental system: 755483-174-R-J1-PDC complex spheroid growth, percent test/control;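 also: spheroids exposed to compounds for seven days before readout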
measurement units: %
viability, T/C: 109
